Below are molecules with their pIC50 as measured on Aldo-keto reductase family 1 member B1 (Bos taurus, UniProt P16116).
In textbook form, pIC50 equals minus log to base ten of the concentration in mol/L.

I have this molecule here, O=C(COc1cc(O)c2c(=O)cc(-c3ccc4c(c3)OCCO4)oc2c1)OCCCCO[N+](=O)[O-] , and I need its recorded pIC50. 6.31

Any idea what pIC50 was measured for O=c1cc(-c2ccc3c(c2)OCCO3)oc2cc(OCCO[N+](=O)[O-])cc(O)c12 ? 7.00

Query (molecule): CCOc1cc(O)c2c(=O)cc(-c3ccc4c(c3)OCCO4)oc2c1 ; field requested: pIC50 5.93

What value of measured pIC50 is listed for O=c1cc(-c2ccc3c(c2)OCCO3)oc2cc(OCCCCO[N+](=O)[O-])cc(O)c12 ? 6.90

May I ask what pIC50 has been recorded for CCOc1cc(O)c2c(=O)cc(-c3ccc(O)c(O)c3)oc2c1 ? 6.22

* * *

assay: Induction of nitric oxide release at 10^-4 M after 1 hr by Griess assay in presence of L-cysteine relative to control; format: physicochemical; details: 100 µM
Readout Type: Activity (%)
Output spec: scalar in %, unitless text.

// returns reported Activity for input O=c1cc(-c2ccc(O)c(O)c2)oc2cc(OCCCCCCO[N+](=O)[O-])cc(O)c12 4.637

// lookup Activity for O=c1cc(-c2ccc3c(c2)OCCO3)oc2cc(OCCO[N+](=O)[O-])cc(O)c12 2.111

What Activity value was documented for this molecule, O=c1cc(-c2ccc(O)c(O)c2)oc2cc(OCCO[N+](=O)[O-])cc(O)c12 ? 1.07

So what does the record say about Activity for O=C(COc1cc(O)c2c(=O)cc(-c3ccc4c(c3)OCCO4)oc2c1)OCCCCCCO[N+](=O)[O-] ? 1.14

Query: Activity; subject: O=C(COc1cc(O)c2c(=O)cc(-c3ccc4c(c3)OCCO4)oc2c1)OCCCCO[N+](=O)[O-] 1.351

Sample O=c1cc(-c2ccc3c(c2)OCCO3)oc2cc(OCCCCCCO[N+](=O)[O-])cc(O)c12 — what was its Activity? 1.328

Could you share which Activity value was measured for O=c1cc(-c2ccc3c(c2)OCCO3)oc2cc(OCCCCO[N+](=O)[O-])cc(O)c12 ? 2.813

Query: Activity; subject: O=C(COc1cc(O)c2c(=O)cc(-c3ccc4c(c3)OCCO4)oc2c1)OCCO[N+](=O)[O-] 1.018

Dear colleague, I am looking for the recorded Activity of the following molecule: O=c1cc(-c2ccc(O)c(O)c2)oc2cc(OCCCCO[N+](=O)[O-])cc(O)c12 2.345

* * *

Readout Type: IC50 (nM)
Number in nM, nothing else.

Notebook entry, UniProtKB P16116 assay: IC50 of O=c1cc(-c2ccc(O)c(O)c2)oc2cc(OCCCCCCO[N+](=O)[O-])cc(O)c12 = ? 491

Lab note: need IC50 with UniProtKB P16116 for entry O=c1cc(-c2ccc(O)c(O)c2)oc2cc(O)cc(O)c12 [LUTEOLIN] , please look it up. 754

Requested read-out IC50, target or system UniProtKB P16116, entry CCOC(=O)COc1cc(O)c2c(=O)cc(-c3ccc4c(c3)OCCO4)oc2c1 506

Lab request: please report IC50 under test system UniProtKB P16116 for CCCCCCOC(=O)COc1cc(O)c2c(=O)cc(-c3ccc4c(c3)OCCO4)oc2c1 2830

Tell me reported IC50 for O=C(COc1cc(O)c2c(=O)cc(-c3ccc4c(c3)OCCO4)oc2c1)OCCCCCCO[N+](=O)[O-] , tested with UniProtKB P16116. 1300
